measured on: GDP-bound KRAS protein (aa 1-169) G12C/C118A (Homo sapiens (Human), UniProt P01116, C118A/G12C)
Sequence (P01116 other isoform, or with tags, fused parts or gaps G12C/C118A): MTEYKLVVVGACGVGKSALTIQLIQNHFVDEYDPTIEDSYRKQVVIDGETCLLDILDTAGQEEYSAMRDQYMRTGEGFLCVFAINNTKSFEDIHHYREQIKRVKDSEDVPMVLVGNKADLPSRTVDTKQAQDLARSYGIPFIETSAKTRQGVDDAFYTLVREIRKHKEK
method: Coupled Nucleotide Exchange Assay (KRAS G12C)
Format: biochemical
test parameters: 5 min compound pre-incubation; read-out: GDP KRAS G12C 5 min Coupled Exchange IC50 IP
value kind: IC50 (nM)
Form entry: value (nM) — number only.

Consider the worked cases shown below.
COC(=O)/C=C/C(=O)N1CCN(c2nc(=O)n(-c3c(C)ccnc3C(C)C)c3nc(-c4ccccc4F)c(Cl)cc23)[C@@H](C)C1
95
Cc1ccnc(C(C)C)c1-n1c(=O)nc(N2C[C@@H](C)N(C(=O)[C@H]3CO3)C[C@@H]2C)c2cc(Cl)c(-c3c(N)cccc3F)nc21
560
Cc1ccnc(C(C)C)c1-n1c(=O)nc(N2CCN(C(=O)[C@H]3CN3)C[C@@H]2C)c2cc(Cl)c(-c3ccccc3F)nc21
88300

Query :: # return recorded IC50 for input Cc1ccnc(C(C)C)c1-n1c(=O)nc(N(C)C2CN(C(=O)C3CO3)C2)c2cc(Cl)c(-c3ccccc3F)nc21 (stereo not drawn)
Result :: 13800

Query :: # return recorded IC50 for input `Cc1ccnc(C(C)C)c1-n1c(=O)nc(N2CCN(C(=O)[C@@H]3O[C@H]3CN3CCCCC3)C[C@@H]2C)c2cc(Cl)c(-c3ccccc3F)nc21`
Result :: 1120

###

pIC50 values for the compounds below.
measured on: GDP-bound KRAS protein (aa 1-169) G12D/C118A (Homo sapiens (Human), UniProt P01116, C118A/G12D)
Sequence (P01116 other isoform, or with tags, fused parts or gaps G12D/C118A): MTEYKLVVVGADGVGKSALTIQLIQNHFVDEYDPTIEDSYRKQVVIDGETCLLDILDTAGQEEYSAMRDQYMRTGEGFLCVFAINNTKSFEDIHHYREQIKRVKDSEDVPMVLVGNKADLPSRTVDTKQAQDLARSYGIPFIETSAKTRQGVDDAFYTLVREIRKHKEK
method: Coupled Nucleotide Exchange Assay (KRAS G12D)
Format: biochemical
test parameters: 20 h compound pre-incubation; read-out: GDP KRAS G12D 20 h Coupled Exchange IC50 IP
Protocol: Coupled Nucleotide Exchange Assay: Purified GDP-bound KRAS protein (aa 1-169), containing either G12C or G12D, as well as C118A amino acid substitutions and an N-terminal His-tag, was pre-incubated in assay buffer (25 mM HEPES pH 7.4, 10 mM MgCl2, and 0.01% Triton X-100) with a compound dose-response titration for either 5 min or 20 hours (see Table 15). […]
pIC50: −log10 of the molar value.

Consider the worked cases shown below.
Cc1ccnc(C(C)C)c1-n1c(=O)nc(N2CCN(C(=O)[C@H]3O[C@@H]3C)C[C@@H]2C)c2cc(Cl)c(-c3ccccc3F)nc21 (mixture of isomers)
< 3.60
Cc1ccnc(C(C)C)c1-n1c(=O)nc(N2CCN(C(=O)COc3c(F)cc(F)cc3F)C[C@@H]2C)c2cc(Cl)c(-c3ccccc3F)nc21
< 3.60

Next compound, please.
Query :: # return recorded pIC50 for input `Cc1ccnc(C(C)C)c1-n1c(=O)nc(N(C)C2CN(C(=O)[C@H]3CO3)C2)c2cc(Cl)c(-c3ccccc3F)nc21`
Result :: < 3.60

###

measured on: GDP-bound KRAS protein (aa 1-169) G12C/C118A (Homo sapiens (Human), UniProt P01116, C118A/G12C)
method: Coupled Nucleotide Exchange Assay (KRAS G12C)
Format: biochemical
test parameters: 20 h compound pre-incubation; read-out: GDP KRAS G12C 20 h Coupled Exchange IC50 IP
value kind: pIC50
# pIC50: negative log10 of molar concentration; output just the value

Consider the worked cases shown below.
Cc1ccnc(C(C)C)c1-n1c(=O)nc(N2C[C@@H](C)N(C(=O)[C@H]3CO3)C[C@@H]2C)c2cc(Cl)c(-c3c(N)cccc3F)nc21
7.82
Cc1ccnc(C(C)C)c1-n1c(=O)nc(N2CCN(C(=O)COc3c(Cl)cccc3Cl)C[C@@H]2C)c2cc(Cl)c(-c3ccccc3F)nc21
4.58
Cc1ccnc(C(C)C)c1-n1c(=O)nc(N(C)C2CN(C(=O)C3CO3)C2)c2cc(Cl)c(-c3ccccc3F)nc21 (stereo not drawn)
6.64
COC(=O)/C=C/C(=O)N1CCN(c2nc(=O)n(-c3c(C)ccnc3C(C)C)c3nc(-c4ccccc4F)c(Cl)cc23)[C@@H](C)C1
7.59
Cc1ccnc(C(C)C)c1-n1c(=O)nc(N2CC3(CN(C(=O)C4CO4)C3)C2)c2cc(Cl)c(-c3ccccc3F)nc21 (stereo not drawn)
4.38

Query :: # return recorded pIC50 for input `Cc1ccnc(C(C)C)c1-n1c(=O)nc(N2CCN(C(=O)CCl)C[C@@H]2C)c2cc(Cl)c(-c3ccccc3F)nc21`
Result :: 7.59

Query :: # return recorded pIC50 for input `Cc1ccnc(C(C)C)c1-n1c(=O)nc(N2C[C@@H](C)N(C(=O)[C@H]3CO3)C[C@@H]2C)c2cc(Cl)c(-c3c(O)cccc3F)nc21`
Result :: 7.62

Query :: # return recorded pIC50 for input `Cc1ccnc(C(C)C)c1-n1c(=O)nc(N2CCN(C(=O)COc3cccc(F)c3F)C[C@@H]2C)c2cc(Cl)c(-c3ccccc3F)nc21`
Result :: 5.69

Query :: # return recorded pIC50 for input Cc1ccnc(C(C)C)c1-n1c(=O)nc(N2CCN(C(=O)[C@H]3O[C@@H]3C)C[C@@H]2C)c2cc(Cl)c(-c3ccccc3F)nc21 (mixture of isomers)
Result :: 7.02

Query :: # return recorded pIC50 for input `Cc1ccnc(C(C)C)c1-n1c(=O)nc(N2CCN(C(=O)[C@@H]3O[C@H]3C(=O)O)C[C@@H]2C)c2cc(Cl)c(-c3ccccc3F)nc21`
Result :: 6.00

###

measured on: GDP-bound KRAS protein (aa 1-169) G12C/C118A (Homo sapiens (Human), UniProt P01116, C118A/G12C)
method: Coupled Nucleotide Exchange Assay (KRAS G12C)
Type: biochemical
test parameters: 20 h compound pre-incubation; read-out: GDP KRAS G12C 20 h Coupled Exchange IC50 IP
pIC50 values for the compounds below.
# pIC50: negative log10 of molar concentration; output just the value

Consider the worked cases shown below.
Cc1ccnc(C(C)C)c1-n1c(=O)nc(N2CCN(C(=O)COc3c(F)cc(F)cc3F)C[C@@H]2C)c2cc(Cl)c(-c3ccccc3F)nc21
5.26
Cc1ccnc(C(C)C)c1-n1c(=O)nc(N2CCN(C(=O)[C@@H]3O[C@H]3CN3CCCCC3)C[C@@H]2C)c2cc(Cl)c(-c3ccccc3F)nc21
8.30

Next compound, please.
Query :: # return recorded pIC50 for input `CCOC(=O)[C@@H]1O[C@H]1C(=O)N1CCN(c2nc(=O)n(-c3c(C)ccnc3C(C)C)c3nc(-c4ccccc4F)c(Cl)cc23)[C@@H](C)C1`
Result :: 8.30

###

measured on: GDP-bound KRAS protein (aa 1-169) G12C/C118A (Homo sapiens (Human), UniProt P01116, C118A/G12C)
method: Coupled Nucleotide Exchange Assay (KRAS G12C)
Format: biochemical
test parameters: GDP KRAS G12C 5 min Coupled Exchange IC50 IP, 5 min compound pre-incubation
value kind: IC50

Query :: # return recorded IC50 for input `Cc1ccnc(C(C)C)c1-n1c(=O)nc(N2CCN(C(=O)CF)C[C@@H]2C)c2cc(Cl)c(-c3ccccc3F)nc21`
Result :: > 250 µM

###

measured on: GDP-bound KRAS protein (aa 1-169) G12C/C118A (Homo sapiens (Human), UniProt P01116, C118A/G12C)
method: Coupled Nucleotide Exchange Assay (KRAS G12C)
Type: biochemical
test parameters: 5 min compound pre-incubation; read-out: GDP KRAS G12C 5 min Coupled Exchange IC50 IP
value kind: IC50

Cc1ccnc(C(C)C)c1-n1c(=O)nc(N2CCC[C@H](NC(=O)C3CO3)C2)c2cc(Cl)c(-c3ccccc3F)nc21 (stereo partly drawn)
> 250 µM
Cc1ccnc(C(C)C)c1-n1c(=O)nc(N2CCN(C(=O)COc3c(Cl)cccc3Cl)C[C@@H]2C)c2cc(Cl)c(-c3ccccc3F)nc21
> 250 µM

Next molecule, please.
Query :: # return recorded IC50 for input `Cc1ccnc(C(C)C)c1-n1c(=O)nc(N2CCN(C(=O)COc3ccccc3)C[C@@H]2C)c2cc(Cl)c(-c3ccccc3F)nc21`
Result :: > 250 µM

###

measured on: GDP-bound KRAS protein (aa 1-169) G12C/C118A (Homo sapiens (Human), UniProt P01116, C118A/G12C)
method: Coupled Nucleotide Exchange Assay (KRAS G12C)
Type: biochemical
test parameters: 5 min compound pre-incubation; read-out: GDP KRAS G12C 5 min Coupled Exchange IC50 IP
value kind: pIC50
# pIC50: negative log10 of molar concentration; output just the value

Cc1ccnc(C(C)C)c1-n1c(=O)nc(N2CCN(C(=O)[C@H]3CO3)C[C@@H]2C)c2cc(Cl)c(-c3ccccc3F)nc21 (atropisomer, axis not shown)
5.42

Query :: # return recorded pIC50 for input Cc1ccnc(C(C)C)c1-n1c(=O)nc(N2CCCC3C2CN3C(=O)C2CO2)c2cc(Cl)c(-c3ccccc3F)nc21 (stereo not shown)
Result :: 4.22

Query :: # return recorded pIC50 for input `Cc1ccnc(C(C)C)c1-n1c(=O)nc(N2CCN(C(=O)[C@@H]3O[C@H]3CO)C[C@@H]2C)c2cc(Cl)c(-c3ccccc3F)nc21`
Result :: 5.20

Query :: # return recorded pIC50 for input `CCOC(=O)[C@@H]1O[C@H]1C(=O)N1CCN(c2nc(=O)n(-c3c(C)ccnc3C(C)C)c3nc(-c4ccccc4F)c(Cl)cc23)[C@@H](C)C1`
Result :: 6.67

Query :: # return recorded pIC50 for input `Cc1ccnc(C(C)C)c1-n1c(=O)nc(N2CCN(C(=O)CCl)C[C@@H]2C)c2cc(Cl)c(-c3ccccc3F)nc21`
Result :: 5.89
